B1: Forkhead box protein P1 (Homo sapiens), Q9H334 (parent)
chain: MMQESGTETKSNGSAIQNGSGGSNHLLECGGLREGRSNGETPAVDIGAADLAHAQQQQQQALQVARQLLLQQQQQQQVSGLKSPKRNDKQPALQVPVSVAMMTPQVITPQQMQQILQQQVLSPQQLQVLLQQQQALMLQQQQLQEFYKKQQEQLQLQLLQQQHAGKQPKEQQQVATQQLAFQQQLLQMQQLQQQHLLSLQRQGLLTIQPGQPALPLQPLAQGMIPTELQQLWKEVTSAHTAEETTGNNHSSLDLTTTCVSSSAPSKTSLIMNPHASTNGQLSVHTPKRESLSHEEHPHSHPLYGHGVCKWPGCEAVCEDFQSFLKHLNSEHALDDRSTAQCRVQMQVVQQLELQLAKDKERLQAMMTHLHVKSTEPKAAPQPLNLVSSVTLSKSASEASPQSLPHTPTTPTAPLTPVTQGPSVITTTSMHTVGPIRRRYSDKYNVPISSADIAQNQEFYKNAEVRPPFTYASLIRQAILESPEKQLTLNEIYNWFTRMFAYFRRNAATWKNAVRHNLSLHKCFVRVENVKGAVWTVDEVEFQKRRPQKISGNPSLIKNMQSSHAYCTPLNAALQASMAENSIPLYTTASMGNPTLGNLASAIREELNGAMEHTNSNESDSSPGRSPMQAVHPVHVKEEPLDPEEAEGPLSLVTTANHSPDFDHDRDYEDEPVNEDME

Variants of: B1
MEASUREMENT PARAMETERS: with foxp2_human FOXP2, O15409
Sequence (O15409 whole entry): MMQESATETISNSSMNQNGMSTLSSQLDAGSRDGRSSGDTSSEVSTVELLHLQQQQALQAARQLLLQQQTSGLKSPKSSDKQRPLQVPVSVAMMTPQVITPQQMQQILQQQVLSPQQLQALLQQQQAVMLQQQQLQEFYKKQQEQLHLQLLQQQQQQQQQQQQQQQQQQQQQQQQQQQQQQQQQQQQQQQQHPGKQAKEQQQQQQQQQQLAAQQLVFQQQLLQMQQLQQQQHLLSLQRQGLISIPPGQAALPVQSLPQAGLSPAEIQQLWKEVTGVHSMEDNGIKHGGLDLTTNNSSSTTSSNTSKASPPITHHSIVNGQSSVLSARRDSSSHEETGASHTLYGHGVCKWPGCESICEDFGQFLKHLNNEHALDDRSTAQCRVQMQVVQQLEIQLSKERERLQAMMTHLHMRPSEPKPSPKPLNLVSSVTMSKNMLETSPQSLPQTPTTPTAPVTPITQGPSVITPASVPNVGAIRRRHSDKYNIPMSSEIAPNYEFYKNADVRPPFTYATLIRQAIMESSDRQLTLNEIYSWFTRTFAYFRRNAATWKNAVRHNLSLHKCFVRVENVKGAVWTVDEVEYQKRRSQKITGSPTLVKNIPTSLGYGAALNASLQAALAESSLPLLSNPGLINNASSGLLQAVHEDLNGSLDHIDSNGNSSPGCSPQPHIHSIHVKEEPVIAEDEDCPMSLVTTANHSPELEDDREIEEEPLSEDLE
ENDPOINT: effect of a mutation on the interaction

>>> df
   variant_id                                 endpoint          result
0       N597T  effect of a mutation on the interaction  with no effect
1       R465G  effect of a mutation on the interaction  with no effect
2       N570S  effect of a mutation on the interaction  with no effect
